Target: T1, hCD137 (FXa digested) (human, UniProt Q07011 24-186)
T1 construct: Factor Xa digestion and Protein A removed the Fc; also called human CD137 extracellular domain
T1 sequence (Q07011 other isoform, or with tags, fused parts or gaps limits assumed): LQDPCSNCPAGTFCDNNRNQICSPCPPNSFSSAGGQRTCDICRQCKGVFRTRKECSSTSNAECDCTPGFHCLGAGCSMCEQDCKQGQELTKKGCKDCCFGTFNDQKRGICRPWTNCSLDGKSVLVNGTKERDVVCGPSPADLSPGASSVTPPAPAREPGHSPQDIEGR
Test: SPR, 100 uM AMP
Quick reference: binding amount of the listed items.
value.type: binding amount (RU)

>>> experimental_result("dBBAT112-P253 (antibody, human IgG1, lambda, V domains shown) VH: EVQLVESGGDLVKPGGGLRLSCAASGFTFSTYTMNWVRQAPGKGLEWVSSISSRSNYKFYADSVKGRFTISRDNAKNSLYLQMNSLRAEDTAVYYCARFGVKNNMNWVFDYWGQGTLVTVSS VL: QSALTQPPSASGSPGQTVTISCTGTSSDVGFYNYVSWYQQHPGKAPKLMIYEVSKRPSGVPDRFSGSKSGNTASLTVSGLQAEDEADYFCSSYEYIESVLFGGGTKLTVLG")
4.8
>>> experimental_result("dBBAT021-P253 (antibody, human IgG1, lambda, V domains shown) VH: EVQLVESGGDLVKPGGGLRLSCAASGFTFSSYTMNWVRQAPGKGLEWVSSISSRSNYRDYADSVKGRFTISRDNAKNSLYLQMNSLRAEDTAVYYCARYGGKNILNWVFDYWGQGTLVTVSS VL: QSALTQPPSASGSPGQTVTISCTGTSSDVGFYNYVSWYQQHPGKAPKLMIYEVSKRPSGVPDRFSGSKSGNTASLTVSGLQAEDEADYFCSSYSSDTHVGFGGGTKLTVLG")
3
